Each item that follows carries a reported TGI.
- System: MOLT-4 leukemia
- TEST_SUMMARY: NCI tumour cell line growth inhibition, 48 h
Report as a plain number; the unit µM is understood.

Example results:
1) O=c1cc(N=Nc2ccc(Br)cc2)[nH]c(=S)[nH]1: 63.3
2) Cc1cc(C)n(CC(Cn2nc(C)cc2C)=C(/C(Cl)=C(/Cl)Nc2ccc([N+](=O)[O-])cc2)[N+](=O)[O-])n1: 4.77
3) CCN(Cc1ccc(C)cc1)c1ccc(CO)c(Cl)c1: 45.4
4) CC(C)C1C(=O)N(c2c(F)c(F)c(F)c(F)c2F)C(=S)N1CCS(=O)c1ccccc1 (centres undefined): 49.7

Q: Any idea what TGI was measured for `CCN(CCCN(C)C)Cc1cc(I)cc(C)c1O` ?
Ans: 36.5
